Hey, just so you know, these numbers are from PubChem BioAssay (NCI).

Form field: TGI (one value per entry).
Test system: A498 renal
Assay: NCI tumour cell line growth inhibition, 48 h
attribute measured: TGI

| test smiles | attribute measured | observed |
| --- | --- | --- |
| Cn1c2nc(=Nc3ccc(Cl)cc3)n3ccc4ccccc4c3c2c(=O)n1-c1ccccc1 | TGI | > 100 µM |
| CC(C)Nc1n[nH]c(=O)n1C(C)C | TGI | > 100 µM |
| COc1ccc(S(=O)(=O)N2CCCCC2)cc1NC(=O)c1[nH]c(C)c2c1CCCCC2=O | TGI | 3.98 µM |

====

Tested on: NCI-H522 lung
Test: NCI tumour cell line growth inhibition, 48 h
Form field: log10 of TGI (one value per entry).
attribute measured: log10 of TGI (log10 of the value in µM)

| compound | log10 of TGI |
| --- | --- |
| CC(C)(C)c1ccc(NC(=O)c2cc(=O)c3ccccc3[nH]2)c(C(C)(C)C)c1O | 1.32 |
| COc1ncnc2c1ncn2C/C(Br)=C(\Br)CCl | 0.35 |
| CC(=O)[CH-]C(=O)c1ccccc1.CC(=O)[CH-]C(=O)c1ccccc1.[O-]c1ccc(O)cc1.[O-]c1ccc(O)cc1.[Ti+4] | 0.64 |
| CCCCCCCCCCCCCCCC[N+](C)(C)C | -0.48 |
| CC[O+]=c1cccc2ssnc1-2 | 1.92 |
| COc1cc(/C=C\c2cc(/C=C\c3ccc(O)c(OC)c3)n(C(=O)Nc3ccc(C(F)(F)F)cc3)n2)ccc1O | 0.67 |
| O=C(Oc1ccccc1Cl)c1cccnc1Nc1ccnc(C(F)(F)F)c1 | 1.37 |
| CCCCCCCCCCSS(=O)(=O)c1ccc(C)cc1 | 1.24 |
| COc1cccc2c1C(=O)c1c(O)c3c(c(O)c1C2=O)C[C@@](O)(C(=O)COC(=O)c1cccnc1)C[C@@H]3OC1CC(N)C(O)C(C)O1 (some centres not stated) | -0.66 |
| CC(=O)NC1C(OCc2ccccc2)OC(CO)C(O)C1OCC(=O)NC(C)C(=O)NC(CCC(=O)OCCNC(=O)c1cccc2cc3ccccc3nc12)C(N)=O (configuration not stated) | 1.53 |
| CSc1ccc2c(cc1=O)C(NC(=O)c1cc(O)c(OC(=O)O)c(O)c1)CCc1cc(O)c(O)c(O)c1-2 (configuration not stated) | 1.34 |
| CCCCCCCCCCCCCC/C(=C/OCC[N+](C)(C)C)OC(C)=O (tested in a mixture with another compound) | 0.71 |
| Cn1c(-c2c(N)n(Cc3ccc(Cl)cc3)c3nc(C#N)c(C#N)nc23)nc2ccccc21 | 1.19 |
| Cc1cc2cc(Oc3ccnc(Nc4cccc(CS(=O)(=O)NCCN(C)C)c4)n3)ccc2[nH]1 | 1.17 |
| O=C(/C=C/c1ccc(O)c(O)c1)Oc1ccccc1 | 0.29 |
| COc1ccc(-c2ccc(=O)oc2-c2cc(OC)c(OC)c(OC)c2)cc1O | -1.03 |
| COc1ccc(C(F)(F)F)cc1NC(=O)O/N=C(/Cl)C(C)C | 0.66 |

====

Tested on: MDA-MB-231 breast
Test: NCI tumour cell line growth inhibition, 48 h
attribute measured: TGI

| test smiles | assay target | attribute measured | observed |
| --- | --- | --- | --- |
| Cc1cc(Cl)ccc1OCC(=O)Oc1c(Cl)c(Cl)c(Cl)c(Cl)c1Cl | MDA-MB-231 breast | TGI | 38.1 µM |
| c1ccc(CN2CCC3(CC2)ONC2=NCCN23)cc1 | MDA-MB-231 breast | TGI | > 100 µM |
| C[C@H](C(=O)N1C(=O)O[C@@H](c2ccccc2)[C@H]1C)[C@H](c1ccccc1)N(Cc1ccccc1)OC(=O)c1ccccc1 | MDA-MB-231 breast | TGI | > 100 µM |
| Cn1c2nc(=Nc3ccc(Cl)cc3)n3ccc4ccccc4c3c2c(=O)n1-c1ccccc1 | MDA-MB-231 breast | TGI | > 100 µM |
| O=C(CCNC(=O)OCc1ccccc1)OCCCNC(=O)OCc1ccccc1 | MDA-MB-231 breast | TGI | > 100 µM |
| C[n+]1ccccc1/C=C/c1ccc2c(c1)OCO2 | MDA-MB-231 breast | TGI | > 10 µM |
| COc1ccc(S(=O)(=O)N2CCCCC2)cc1NC(=O)c1[nH]c(C)c2c1CCCCC2=O | MDA-MB-231 breast | TGI | > 100 µM |
| COc1ccccc1NC(=O)N/C(N)=N/c1nc2ccccc2s1 | MDA-MB-231 breast | TGI | > 100 µM |
| C/C=C1/CN2CC[C@@H]3c4ccccc4N4[C@H](C(=O)OC)[C@H]1C[C@H]2[C@]34/C=C/C1=COC[C@@H]2[C@H]1C[C@H]1c3c(c4ccccc4n3C)C[C@@H]2N1C | MDA-MB-231 breast | TGI | 8.93 µM |

====

Test system: SF-539 CNS
Test: NCI tumour cell line growth inhibition, 48 h
Form field: TGI (one value per entry).
attribute measured: TGI

| compound | observed |
| --- | --- |
| CC(C)NCCCNC1=C(Cl)C(=O)c2ccccc2C1=O | 31.8 µM |
| [O-]c1c(-c2ccccc2)[se]c(-c2ccccc2)[n+]1-c1ccccc1 | 4.35 µM |
| CC[O+]=c1cccc2ssnc1-2 | > 100 µM |
| CCCC(=O)C(CC)/C(CCC(=O)N(Cc1ccccc1)Cc1ccccc1)=N/NC(=O)C[N+](C)(C)C (stereo unspecified) | > 100 µM |
| COc1cccc2c1C(=O)c1c(O)c3c(c(O)c1C2=O)C[C@@](O)(C(=O)COC(=O)c1cccnc1)C[C@@H]3OC1CC(N)C(O)C(C)O1 (stereo partly specified) | 0.673 µM |
| COc1cccc(N2CCc3c(C)c(C#N)c4nc5ccccc5n4c32)c1 | > 100 µM |
| O=c1[nH]nc2c3n[nH]c(=O)n3c3ccccc3n12 | > 100 µM |
| COc1ccc(-c2c(N)n(-c3cc(OC)cc(OC)c3)c(=O)c3cc([N+](=O)[O-])ccc23)cc1 | > 100 µM |
| C/C(=N/NC(=S)Nc1cccc(Cl)c1)c1cccc(/C(C)=N\NC(=S)Nc2cccc(Cl)c2)n1 | 3.72 µM |
| CCc1nc2cc(/C=C/C(=O)NO)c(F)cc2c(=O)n1CCc1ccccc1 | 5.8 µM |
| CCOC(=O)NC(=O)c1cn(-c2ccc(CCOC(=O)CCCCCCCCC(=O)OCCc3ccc(-n4cc(C(=O)NC(=O)OCC)c(=O)[nH]c4=O)cc3)cc2)c(=O)[nH]c1=O | > 100 µM |
| C[C@@H]1O[C@@H]2OCC[C@@H]2C2=C1C(=O)c1ccccc1C2=O | 22.3 µM |
| O=C1c2ccccc2C(=O)c2[nH]c(=O)c(/C=N/Nc3ccc([N+](=O)[O-])cc3)nc21 | 19.2 µM |
| Cc1cc(C)c(S(=O)(=O)Oc2ccccc2[N+](=O)[O-])c(C)c1 | > 23.1 µM |
| CC1(Br)C(=O)NC(=O)N([C@H]2C[C@H](O)[C@@H](CO)O2)C1N=[N+]=[N-] (stereo partly specified) | > 100 µM |
| c1ccc(SCCP(CCP(c2ccccc2)c2ccccc2)c2ccccc2)cc1 (stereo unspecified) | > 100 µM |

====

System: IGROV1 ovarian
Assay: NCI tumour cell line growth inhibition, 48 h
attribute measured: TGI

| molecule | observed |
| --- | --- |
| C[C@@H]1O[C@@H]2OCC[C@@H]2C2=C1C(=O)c1ccccc1C2=O | 10.8 µM |
| CC(=O)OC1C(O)COC(Oc2c(C)c3c4c(c2O)[C@@H](C)CC[C@@H]4[C@@H](C)C[C@H]3C=C(C)C)C1O (stereo not given in full) | > 100 µM |
| CCOC(=O)C1C(=O)CC(C)(O)C(C(=O)OCC)C1c1ccc(O)c(OC)c1 (stereo not given) | > 100 µM |
| CCCCCCCCCCCCCC/C(=C/OCC[N+](C)(C)C)OC(C)=O (tested in a mixture with another compound) | 3.96 µM |
| COc1ccc2c(CCNS(=O)(=O)c3ccccc3)c(C(C)=O)[nH]c2c1[N+](=O)[O-] | > 100 µM |
| N=C(N)SC1c2ccccc2-c2cc([N+](=O)[O-])ccc21 (stereo not given) | 18 µM |
| CCN(CCc1ccc(F)cc1)c1ccc(CO)c(Cl)c1 | 7.11 µM |
| Cc1ccc(NCCN(C)CC(C)O)c2c(=O)c3ccc(Cl)cc3sc12 (stereo not given) | > 100 µM |
| COc1ncnc2c1ncn2C/C(Br)=C(\Br)CCl | 4.86 µM |
| COc1cccc(N2CCc3c(C)c(C#N)c4nc5ccccc5n4c32)c1 | > 100 µM |
| C/C(CC(=O)Nc1ccc(C)cc1)=N\NC(N)=S | > 100 µM |
| O=C(c1cccs1)N(C(=S)OCc1ccccn1)c1ccccc1 | > 100 µM |
| COc1ccc(-n2c(C)nc3ccc(N=Cc4ccccc4)cc3c2=O)cc1 | > 100 µM |
| O=C1c2ccccc2C(=O)c2[nH]c(=O)c(/C=N/Nc3ccc([N+](=O)[O-])cc3)nc21 | > 48.8 µM |
| NC(Cc1ccc2oc3cc(=O)c4ccccc4c-3nc2c1)C(=O)O (stereo not given) | > 100 µM |
| CC1(Br)C(=O)NC(=O)N([C@H]2C[C@H](O)[C@@H](CO)O2)C1N=[N+]=[N-] (stereo not given in full) | > 100 µM |
| CCCCCn1ncc(-c2c(O)c(O)cc3c(O)c(-c4c(C)cc5c(-c6cnn(CCCCC)n6)c(O)c(O)cc5c4O)c(C)cc23)n1 | 4.75 µM |
| Cc1nnc2sc(-c3ccc(N)cc3)nn12 | > 100 µM |
| COC(=O)C1=C(C(=O)OC)C2(/N=C(\Nc3ccccc3)c3ccccc3)N(c3ccc(OC)cc3)CC(c3ccccc3)N2O1 (stereo not given) | > 100 µM |
| O=C(O)c1cc2c3c(c1)[C@H]1C=CC[C@H]1CN3CC1CC=CC21 (stereo not given in full) | > 100 µM |
